Biological target: hT1R2/hT1R3 sweet receptor (Homo sapiens, UniProt Q7RTX0+Q8TE23)
Construct: expressed in transfected cells; host or cells: HEK293 derivative stably expressing Gα15, clone S-9
Sequence (Q8TE23 20-839, one chain of several): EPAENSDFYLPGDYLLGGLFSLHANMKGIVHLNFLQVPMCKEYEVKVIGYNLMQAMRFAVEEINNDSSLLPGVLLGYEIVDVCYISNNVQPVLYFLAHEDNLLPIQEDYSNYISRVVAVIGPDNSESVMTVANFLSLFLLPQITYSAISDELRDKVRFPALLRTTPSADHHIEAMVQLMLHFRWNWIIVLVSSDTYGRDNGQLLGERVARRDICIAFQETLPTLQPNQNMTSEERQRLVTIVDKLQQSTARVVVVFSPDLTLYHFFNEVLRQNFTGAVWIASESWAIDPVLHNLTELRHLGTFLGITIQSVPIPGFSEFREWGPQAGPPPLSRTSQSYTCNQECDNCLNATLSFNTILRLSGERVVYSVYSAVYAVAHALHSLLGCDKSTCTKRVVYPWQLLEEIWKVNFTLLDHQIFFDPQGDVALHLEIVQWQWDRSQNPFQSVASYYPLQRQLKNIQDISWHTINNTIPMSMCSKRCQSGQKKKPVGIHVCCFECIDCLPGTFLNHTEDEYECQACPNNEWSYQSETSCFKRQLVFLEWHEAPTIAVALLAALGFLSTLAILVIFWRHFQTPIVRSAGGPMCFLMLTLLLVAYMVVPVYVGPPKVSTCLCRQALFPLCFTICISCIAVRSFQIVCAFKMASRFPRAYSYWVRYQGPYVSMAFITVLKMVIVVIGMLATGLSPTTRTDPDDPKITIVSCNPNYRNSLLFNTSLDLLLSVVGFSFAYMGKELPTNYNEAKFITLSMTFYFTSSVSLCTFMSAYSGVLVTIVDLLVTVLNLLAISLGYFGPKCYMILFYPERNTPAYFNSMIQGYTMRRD
Assay: In vitro hT1R2/hT1R3 sweet taste receptor activation assay (FLIPR, dose response)
Type: cell-based
Conditions: Table E, Sweet Enhancer Amides; read-out: Sweet EC50
Form field: EC50 (one value per entry).
The reply should contain only the number, in µM.

Study these solved cases before continuing.
>>> print(df.to_string())
                                   compound  metric  unit_name  observed_measurement
0     Cc1c(F)c(F)c(C(=O)NC2CCCCCCC2)c(F)c1F    EC50         µM                  1.25
1  COc1cccc2c1CCCC2NC(=O)c1cccc(C)c1O (stereo not drawn)    EC50         µM                  1.95
2     O=C(N[C@@H]1CCc2ccccc21)c1cccc(Cl)c1O    EC50         µM                  0.95
3  Cc1cccc(C(=O)NC2CCCCC2C)c1Cl (stereo not drawn)    EC50         µM                  1.95
4  CC1CCc2ccccc2C1NC(=O)c1cccc(O)c1O (stereo not drawn)    EC50         µM                  1.98

Lookup: Entry under review: "COc1ccc(NC(=O)N2CCc3ccccc3C2)c(OC)c1" . Reported EC50?
Found: 4.44

Lookup: I'd like to know its EC50. The compound in question is Cc1nocc1C(=O)NC1c2ccccc2CCC1C (stereo not drawn)
Found: 1.48

====

# pEC50 per entry
Biological target: hT1R1/hT1R3 umami receptor (Homo sapiens, UniProt Q7RTX0+Q7RTX1)
Construct: expressed in transfected cells; host or cells: HEK293 derivative stably expressing Gα15, clone I-17, expression induced with mifepristone
Test: In vitro hT1R1/hT1R3 umami taste receptor activation assay (FLIPR, dose response)
Assay type: cell-based
Conditions: Table A, Umami Amides; read-out: Umami EC50
Just the number, please; pEC50 means minus log10 of the concentration in mol/L.

>>> df
                                   molecule  observed_measurement
0  CCCC(CC)NC(=O)c1ccc2c(c1)OCO2 (stereo not shown)                  5.74

Lookup: Consider the molecule CCCC(NC(=O)c1ccc2nc(C)oc2c1)C(C)C (stereo not shown) and give its measured pEC50.
Found: 5.80

Lookup: Would you mind telling me what pEC50 value was observed for "COc1ccc2oc(C(=O)NC(C(C)C)C(C)C)cc2c1" ?
Found: 5.92

Lookup: Record request: pEC50 value, item "O=C(N[C@H]1CCCc2ccccc21)c1ccc2c(c1)OCO2"
Found: 5.88

====

Biological target: hT1R1/hT1R3 umami receptor (Homo sapiens, UniProt Q7RTX0+Q7RTX1)
Construct: expressed in transfected cells; host or cells: HEK293 derivative stably expressing Gα15, clone I-17, expression induced with mifepristone
Assay: In vitro hT1R1/hT1R3 umami taste receptor activation assay (FLIPR, dose response)
Assay type: cell-based
Details: Table E; read-out: Umami EC50
Protocol: In order to identify new savory flavoring agents and enhancers, including compounds with savory agonist and enhancer activities (dual activity), the compounds of Formula (I) were screened in primary assays and secondary assays including compound dose response and enhancement assay. […] In compound dose response, an EC50 is calculated to reflect the potency of the compound as a savory agonist or enhancer. […]
# EC50 annotations
Output spec: scalar in µM, unitless text.

In [3]: df
Out[3]:
                                   molecule                                    target  metric  observed_measurement
0  CCCC(CCC)NC(=O)c1cccc(C(F)(F)F)c1 [Example E68]  hT1R1/hT1R3 umami receptor (Homo sapiens, UniProt Q7RTX0+Q7RTX1)    EC50                  0.33

Here is another molecule to look at.
Lookup: Consider the molecule CC1CCCCC1NC(=O)c1nsc(Cl)c1Cl (centres unmarked) [Example E78] and give its measured EC50.
Found: 8.51

====

List of melting point values.

In [3]: df
Out[3]:
                                   compound         metric  observed_measurement
0      Cc1c(F)c(F)c(C(=O)NC2CCCCCC2)c(F)c1F  melting point         164 to 165 °C
1        Cc1ccc(CNC(=O)C(=O)NCCc2ccccn2)cc1  melting point         152 to 154 °C
2     Cc1ccc(CNC(=O)C(=O)NCCc2ccccn2)c(C)c1  melting point         148 to 149 °C
3        Cc1ccc(CNC(=O)C(=O)NCCc2ccccn2)n1C  melting point         147 to 149 °C
4  COc1ccc(CNC(=O)C(=O)NCCc2cc(C)ccn2)c(OC)c1  melting point         144 to 145 °C

Lookup: Quick check: melting point of "COc1ccc(CNC(=O)C(=O)NCCc2ccccn2)c(C)c1" ?
Found: 133 to 134 °C

Lookup: Quick one: melting point for Cc1c(F)c(F)c(C(=O)NC2CCCCC2C)c(F)c1F (stereo not shown) ?
Found: 202 to 204 °C

Lookup: Query: melting point; subject: "Cc1c(F)c(F)c(C(=O)NC(C(C)C)C(C)C)c(F)c1F"
Found: 184 to 187 °C

Lookup: Which melting point is listed for "CCCC(CCC)NC(=O)c1ccc(SC)c(C)c1" ?
Found: 129 to 131 °C

Lookup: What measured melting point goes with "COc1ccc(CNC(=O)C(=O)NCCc2ccc(C)cn2)c(OC)c1" ?
Found: 124 to 125 °C

Lookup: If you can, please state the reported melting point value of "Cc1cc(C)c2c(c1)[C@H](NC(=O)c1conc1C)CCC2" .
Found: 124 to 125 °C

Lookup: State the recorded melting point for this entry: "Cc1ccsc1CNC(=O)C(=O)NCCc1ccccn1"
Found: 122 to 124 °C

====

Target: hT1R1/hT1R3 umami receptor (Homo sapiens, UniProt Q7RTX0+Q7RTX1)
Construct: expressed in transfected cells; host or cells: HEK293 derivative stably expressing Gα15, clone I-17, expression induced with mifepristone
Sequence (Q7RTX1 21-841): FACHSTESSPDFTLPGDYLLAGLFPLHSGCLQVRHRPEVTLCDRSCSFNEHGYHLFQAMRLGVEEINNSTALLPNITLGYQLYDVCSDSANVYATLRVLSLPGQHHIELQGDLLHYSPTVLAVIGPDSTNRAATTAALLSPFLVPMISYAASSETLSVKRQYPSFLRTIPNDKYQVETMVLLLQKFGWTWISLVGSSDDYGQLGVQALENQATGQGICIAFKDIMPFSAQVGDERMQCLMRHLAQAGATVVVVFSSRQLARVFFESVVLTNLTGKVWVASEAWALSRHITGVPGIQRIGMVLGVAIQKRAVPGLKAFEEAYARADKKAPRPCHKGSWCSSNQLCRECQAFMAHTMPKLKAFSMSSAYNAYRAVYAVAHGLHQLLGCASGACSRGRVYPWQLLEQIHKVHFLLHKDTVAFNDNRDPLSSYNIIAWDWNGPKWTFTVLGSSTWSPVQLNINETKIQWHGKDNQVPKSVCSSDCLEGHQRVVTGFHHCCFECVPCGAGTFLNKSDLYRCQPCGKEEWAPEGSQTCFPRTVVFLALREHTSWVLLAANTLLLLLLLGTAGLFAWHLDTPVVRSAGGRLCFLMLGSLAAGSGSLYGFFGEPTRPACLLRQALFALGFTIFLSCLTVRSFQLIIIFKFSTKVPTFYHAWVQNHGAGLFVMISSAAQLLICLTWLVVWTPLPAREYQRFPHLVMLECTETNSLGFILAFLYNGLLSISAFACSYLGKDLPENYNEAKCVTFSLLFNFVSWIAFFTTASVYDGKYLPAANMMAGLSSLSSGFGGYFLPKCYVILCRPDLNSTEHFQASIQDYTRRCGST
Sequence (Q7RTX0 21-852): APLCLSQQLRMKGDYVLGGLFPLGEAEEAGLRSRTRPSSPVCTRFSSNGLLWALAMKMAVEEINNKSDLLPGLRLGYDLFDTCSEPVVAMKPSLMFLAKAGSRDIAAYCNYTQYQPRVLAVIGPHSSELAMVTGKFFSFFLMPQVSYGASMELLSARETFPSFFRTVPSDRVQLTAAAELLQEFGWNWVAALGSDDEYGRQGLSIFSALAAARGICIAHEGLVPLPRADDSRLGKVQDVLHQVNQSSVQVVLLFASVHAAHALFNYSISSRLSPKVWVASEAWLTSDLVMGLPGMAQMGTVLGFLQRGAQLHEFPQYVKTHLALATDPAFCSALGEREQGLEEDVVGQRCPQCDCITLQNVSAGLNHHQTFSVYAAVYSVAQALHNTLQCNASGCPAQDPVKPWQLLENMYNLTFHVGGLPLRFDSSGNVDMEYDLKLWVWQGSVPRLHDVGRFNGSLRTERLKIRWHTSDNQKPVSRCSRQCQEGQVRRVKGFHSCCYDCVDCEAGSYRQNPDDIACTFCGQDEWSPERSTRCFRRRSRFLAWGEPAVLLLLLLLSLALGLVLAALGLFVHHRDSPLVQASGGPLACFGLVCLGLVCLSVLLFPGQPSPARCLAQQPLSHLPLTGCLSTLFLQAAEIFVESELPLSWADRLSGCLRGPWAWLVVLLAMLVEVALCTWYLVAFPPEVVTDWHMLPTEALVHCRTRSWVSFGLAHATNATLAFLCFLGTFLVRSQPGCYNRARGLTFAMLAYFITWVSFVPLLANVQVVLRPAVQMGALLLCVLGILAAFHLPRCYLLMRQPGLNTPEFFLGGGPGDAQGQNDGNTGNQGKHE
Assay: In vitro hT1R1/hT1R3 umami taste receptor activation assay (FLIPR, dose response)
Assay type: cell-based
Settings: Table C, Umami Ureas; read-out: Umami EC50
METRIC: pEC50
pEC50 field: float, defined as -log10 of concentration (mol/L).

Reference set (3 entries):
>>> df
                                   compound  metric  observed_measurement
0             CCCC(CCC)NC(=O)Nc1ccc(C)cc1Cl   pEC50                  7.05
1            COc1ccccc1NC(=O)NC(C(C)C)C(C)C   pEC50                  6.62
2  COc1ccc(NC(=O)NC2CCCCC2C)c(OC)c1 (stereo not shown)   pEC50                  5.85

Query compound follows.
Lookup: Entry "C=Cc1ccccc1NC(=O)NC(CCC)CCC" : reported pEC50 = ?
Found: 6.10
